biological target: NDM-5 (Escherichia coli, UniProt G3K399)
Sequence (G3K399 29-270 limits assumed): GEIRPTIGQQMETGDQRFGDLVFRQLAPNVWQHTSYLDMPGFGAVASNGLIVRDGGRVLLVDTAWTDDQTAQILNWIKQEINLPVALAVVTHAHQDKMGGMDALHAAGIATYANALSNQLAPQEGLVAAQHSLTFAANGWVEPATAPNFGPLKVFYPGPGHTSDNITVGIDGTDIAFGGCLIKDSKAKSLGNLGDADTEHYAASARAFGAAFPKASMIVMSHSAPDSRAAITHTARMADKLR
property: pIC50
pIC50 is a log-scale quantity: -log10 of the concentration expressed in molar.

Record CCN(CC)C(=S)SSC(=S)N(CC)CC , field pIC50: 4.02

Cited source: paper PMC10400630
